Cited source: ChEMBL document CHEMBL5291721

- Tgt: Thromboxane A2 receptor (Homo sapiens)
- Sequence (P21731 whole entry): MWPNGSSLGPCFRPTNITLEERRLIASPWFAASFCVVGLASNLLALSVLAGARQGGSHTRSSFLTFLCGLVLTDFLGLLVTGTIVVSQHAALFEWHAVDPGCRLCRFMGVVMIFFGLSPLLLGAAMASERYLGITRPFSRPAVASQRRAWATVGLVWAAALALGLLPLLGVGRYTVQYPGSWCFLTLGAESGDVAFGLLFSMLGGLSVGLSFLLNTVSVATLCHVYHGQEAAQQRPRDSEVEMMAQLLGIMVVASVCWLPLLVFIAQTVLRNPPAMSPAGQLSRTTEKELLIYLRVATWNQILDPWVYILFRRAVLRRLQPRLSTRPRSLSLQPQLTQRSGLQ
- Assay type: functional, cell-based
List of AC50 values.
Measured parameter: AC50

- Molecule: "C[C@@H](O)[C@H]1C(=O)N2C(C(=O)O)=C(SCCN=CN)C[C@H]12 [IMIPENEM ANHYDROUS]"
  Measured parameter: "AC50"
  Observed measurement: "> 300 µM"
- Molecule: "CC(=O)Oc1ccccc1C(=O)O [ASPIRIN]"
  Measured parameter: "AC50"
  Observed measurement: "> 30 µM"
- Molecule: "NCC1(CC(=O)O)CCCCC1 [GABAPENTIN]"
  Measured parameter: "AC50"
  Observed measurement: "> 30 µM"
- Molecule: "Nc1c2c(nc3ccccc13)CCCC2O (centres undefined) [VELNACRINE]"
  Measured parameter: "AC50"
  Observed measurement: "> 30 µM"
- Molecule: "Cn1cnc2c(F)c(Nc3ccc(Br)cc3F)c(C(=O)NOCCO)cc21 [BINIMETINIB]"
  Measured parameter: "AC50"
  Observed measurement: "> 30 µM"
- Molecule: "CO[C@@H]1[C@@H](OC(N)=O)[C@@H](O)[C@H](Oc2ccc3c(O)c(NC(=O)c4ccc(O)c(CC=C(C)C)c4)c(=O)oc3c2C)OC1(C)C [NOVOBIOCIN]"
  Measured parameter: "AC50"
  Observed measurement: "> 30 µM"
- Molecule: "c1cnc2cc3c(cc2n1)[C@@H]1CNC[C@H]3C1 [VARENICLINE]"
  Measured parameter: "AC50"
  Observed measurement: "> 30 µM"
- Molecule: "CN(C)CCC=C1c2ccccc2CCc2ccccc21 [AMITRIPTYLINE]"
  Measured parameter: "AC50"
  Observed measurement: "> 30 µM"
- Molecule: "N=C(N)NC(=O)Cc1c(Cl)cccc1Cl [GUANFACINE]"
  Measured parameter: "AC50"
  Observed measurement: "> 30 µM"

###

- Tgt: Estrogen receptor beta (Homo sapiens, UniProt Q92731)
- Sequence (Q92731 whole entry): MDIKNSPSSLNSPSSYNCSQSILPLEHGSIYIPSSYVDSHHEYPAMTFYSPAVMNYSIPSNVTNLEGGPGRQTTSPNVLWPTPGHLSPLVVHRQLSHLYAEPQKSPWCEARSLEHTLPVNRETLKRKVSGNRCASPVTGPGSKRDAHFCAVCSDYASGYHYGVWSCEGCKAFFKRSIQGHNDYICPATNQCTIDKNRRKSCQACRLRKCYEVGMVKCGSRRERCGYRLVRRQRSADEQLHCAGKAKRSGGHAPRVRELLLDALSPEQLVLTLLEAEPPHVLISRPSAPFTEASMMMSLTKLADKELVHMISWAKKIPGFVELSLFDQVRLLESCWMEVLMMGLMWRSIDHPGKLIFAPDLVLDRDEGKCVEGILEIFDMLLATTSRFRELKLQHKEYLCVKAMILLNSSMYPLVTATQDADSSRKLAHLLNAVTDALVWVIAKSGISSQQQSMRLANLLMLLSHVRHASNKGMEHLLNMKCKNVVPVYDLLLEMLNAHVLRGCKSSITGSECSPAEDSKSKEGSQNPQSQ
List of AC50 values.

- Compound: "Cc1ccc(-c2ncc(Cl)cc2-c2ccc(S(C)(=O)=O)cc2)cn1"
  AC50: "> 30 µM"
- Compound: "CC1NCCOC1c1ccccc1 (stereo not drawn)"
  AC50: "> 30 µM"
- Compound: "COc1ccc2c3c1O[C@H]1C(=O)CC[C@H]4[C@@H](C2)N(C)CC[C@]314 [HYDROCODONE]"
  AC50: "> 30 µM"

###

- Tgt: 3',5'-cyclic-AMP phosphodiesterase 4A (Homo sapiens, UniProt P27815)
- Sequence (P27815 whole entry): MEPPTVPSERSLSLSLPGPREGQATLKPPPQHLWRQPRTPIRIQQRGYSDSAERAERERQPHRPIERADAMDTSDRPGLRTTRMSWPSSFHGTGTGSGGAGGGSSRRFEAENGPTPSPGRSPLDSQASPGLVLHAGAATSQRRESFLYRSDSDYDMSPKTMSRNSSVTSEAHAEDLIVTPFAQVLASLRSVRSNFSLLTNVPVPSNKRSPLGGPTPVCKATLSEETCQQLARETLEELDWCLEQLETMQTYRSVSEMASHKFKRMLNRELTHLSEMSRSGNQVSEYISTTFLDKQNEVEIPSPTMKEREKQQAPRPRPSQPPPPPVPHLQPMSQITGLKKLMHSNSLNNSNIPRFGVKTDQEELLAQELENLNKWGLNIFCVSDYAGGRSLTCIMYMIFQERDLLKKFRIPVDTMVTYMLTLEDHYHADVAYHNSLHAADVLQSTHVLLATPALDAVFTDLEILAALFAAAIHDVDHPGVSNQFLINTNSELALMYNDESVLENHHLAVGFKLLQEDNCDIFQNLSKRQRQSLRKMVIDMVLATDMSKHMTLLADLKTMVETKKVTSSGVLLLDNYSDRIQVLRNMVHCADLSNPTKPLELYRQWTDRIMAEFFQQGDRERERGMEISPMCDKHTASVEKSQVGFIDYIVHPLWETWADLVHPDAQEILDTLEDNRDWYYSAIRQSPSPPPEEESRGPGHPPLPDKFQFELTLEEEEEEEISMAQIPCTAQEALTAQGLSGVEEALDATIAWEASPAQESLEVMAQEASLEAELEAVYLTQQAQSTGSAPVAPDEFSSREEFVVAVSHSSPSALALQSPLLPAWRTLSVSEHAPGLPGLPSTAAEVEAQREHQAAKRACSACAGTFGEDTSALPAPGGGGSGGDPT
- Type: functional

- Molecule: "CC(C)(Oc1ccc(Cl)cc1)C(=O)NC(=O)NCN1CCOCC1 [PLAFIBRIDE]"
  AC50: "> 30 µM"
- Molecule: "O=C1[C@@H]2[C@H]3CC[C@H](C3)[C@@H]2C(=O)N1C[C@@H]1CCCC[C@H]1CN1CCN(c2nsc3ccccc23)CC1"
  AC50: "22.5 µM"
- Molecule: "O=C1Nc2ccccc2C1(c1ccc(O)cc1)c1ccc(O)cc1"
  AC50: "> 30 µM"
- Molecule: "C[C@@H]1CN(c2c(F)c(N)c3c(=O)c(C(=O)O)cn(C4CC4)c3c2F)C[C@H](C)N1"
  AC50: "> 30 µM"
- Molecule: "CC1=C(C/C=C(\\C)CCC[C@H](C)CCC[C@H](C)CCCC(C)C)C(=O)c2ccccc2C1=O"
  AC50: "9.52 µM"
- Molecule: "NC(=O)C1(N2CCCCC2)CCN(CCCN2c3ccccc3CCc3ccccc32)CC1"
  AC50: "> 30 µM"
- Molecule: "C#C[C@]1(OC(C)=O)CC[C@H]2[C@@H]3CCC4=CC(=O)CC[C@@H]4[C@H]3CC[C@@]21C [NORETHINDRONE ACETATE]"
  AC50: "> 30 µM"
- Molecule: "COc1cc(C[C@@H]2NCCc3cc(O)c(O)cc32)cc(OC)c1OC"
  AC50: "> 30 µM"

###

# AC50 measurements, system: Glucocorticoid receptor (Homo sapiens, UniProt P04150); further: assay procedure not described here
# Sequence (P04150 whole entry): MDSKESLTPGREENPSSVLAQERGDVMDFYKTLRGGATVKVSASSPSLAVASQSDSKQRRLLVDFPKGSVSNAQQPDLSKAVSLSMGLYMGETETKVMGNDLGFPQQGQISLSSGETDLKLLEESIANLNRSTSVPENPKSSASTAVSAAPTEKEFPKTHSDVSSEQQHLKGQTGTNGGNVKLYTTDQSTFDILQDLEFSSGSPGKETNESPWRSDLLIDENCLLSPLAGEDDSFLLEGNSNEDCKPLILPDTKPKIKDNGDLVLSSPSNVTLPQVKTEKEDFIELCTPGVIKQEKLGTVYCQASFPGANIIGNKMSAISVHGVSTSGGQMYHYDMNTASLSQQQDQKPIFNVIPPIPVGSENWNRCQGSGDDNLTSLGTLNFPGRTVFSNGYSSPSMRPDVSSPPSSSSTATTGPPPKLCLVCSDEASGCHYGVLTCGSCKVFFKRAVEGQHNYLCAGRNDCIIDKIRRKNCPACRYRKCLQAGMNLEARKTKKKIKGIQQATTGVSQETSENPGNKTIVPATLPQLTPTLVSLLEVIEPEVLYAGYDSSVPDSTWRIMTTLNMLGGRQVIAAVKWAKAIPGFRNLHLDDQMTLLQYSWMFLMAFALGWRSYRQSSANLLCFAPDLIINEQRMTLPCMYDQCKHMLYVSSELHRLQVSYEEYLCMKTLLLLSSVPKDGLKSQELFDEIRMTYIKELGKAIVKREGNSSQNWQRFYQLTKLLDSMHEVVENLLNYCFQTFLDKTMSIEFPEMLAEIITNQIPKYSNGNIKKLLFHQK

- Molecule: "CN(C)CCCC1(c2ccc(F)cc2)OCc2cc(C#N)ccc21 (stereo not drawn) [CITALOPRAM]"
  AC50: "> 30 µM"
- Molecule: "CC(=O)NC[C@H]1CN(c2ccc(N3CCOCC3)c(F)c2)C(=O)O1 [LINEZOLID]"
  AC50: "> 30 µM"
- Molecule: "Cc1ccc(S(=O)(=O)NC(=O)N[C@H]2[C@H]3CC[C@@](C)([C@H]2O)C3(C)C)cc1 [GLIBORNURIDE]"
  AC50: "> 30 µM"
- Molecule: "NCCCNCCSP(=O)(O)O [AMIFOSTINE]"
  AC50: "> 30 µM"
- Molecule: "N[C@@H](Cc1cc(I)c(Oc2cc(I)c(O)c(I)c2)c(I)c1)C(=O)O [LEVOTHYROXINE]"
  AC50: "> 30 µM"
- Molecule: "CCC(=O)[C@@]1(C)[C@H](C)C[C@H]2[C@@H]3CCC4=CC(=O)C=C[C@]4(C)[C@H]3[C@@H](O)C[C@@]21C [RIMEXOLONE]"
  AC50: "0.01 µM"
- Molecule: "O=C(C[S+]([O-])Cc1ccco1)NC/C=C\\COc1cc(CN2CCCCC2)ccn1 (stereo not drawn) [LAFUTIDINE]"
  AC50: "> 10 µM"
- Molecule: "CC(C)CN(C[C@@H](O)[C@H](Cc1ccccc1)NC(=O)O[C@H]1CCOC1)S(=O)(=O)c1ccc(N)cc1"
  AC50: "> 10 µM"

###

List of AC50 values.
- Tgt: Kappa-type opioid receptor (Homo sapiens, UniProt P41145)
- Sequence (P41145 whole entry): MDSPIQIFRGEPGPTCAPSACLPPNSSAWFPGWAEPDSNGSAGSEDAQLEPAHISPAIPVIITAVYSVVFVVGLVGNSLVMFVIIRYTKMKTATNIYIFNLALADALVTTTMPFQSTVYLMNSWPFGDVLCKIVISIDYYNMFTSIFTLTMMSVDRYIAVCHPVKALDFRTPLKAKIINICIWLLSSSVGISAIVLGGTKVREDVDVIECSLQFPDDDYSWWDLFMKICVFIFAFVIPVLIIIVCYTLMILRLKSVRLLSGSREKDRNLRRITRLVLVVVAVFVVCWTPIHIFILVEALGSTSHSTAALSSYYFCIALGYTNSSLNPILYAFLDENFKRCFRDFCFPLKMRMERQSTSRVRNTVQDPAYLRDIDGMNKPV
Measured parameter: AC50

- Compound: "CCCO[C@H]1[C@@H]([C@@H](COCc2ccc(Cl)cc2)OCc2ccc(Cl)cc2)OC(OCC)[C@@H]1O (stereo partly drawn) [CLOBENOSIDE]"
  Tgt: "Kappa-type opioid receptor (Homo sapiens, UniProt P41145)"
  Observed measurement: "27 µM"
- Compound: "N[C@@H](Cc1cc(I)c(Oc2cc(I)c(O)c(I)c2)c(I)c1)C(=O)O [LEVOTHYROXINE]"
  Tgt: "Kappa-type opioid receptor (Homo sapiens, UniProt P41145)"
  Observed measurement: "> 30 µM"
- Compound: "CC(C(=O)O)c1ccc(C(=O)c2ccccc2)s1 (stereo not drawn) [TIAPROFENIC ACID]"
  Tgt: "Kappa-type opioid receptor (Homo sapiens, UniProt P41145)"
  Observed measurement: "> 10 µM"
- Compound: "CCNC(=O)CCC/C=C\\C[C@@H]1[C@@H](/C=C/[C@@H](O)CCc2ccccc2)[C@H](O)C[C@@H]1O [BIMATOPROST]"
  Tgt: "Kappa-type opioid receptor (Homo sapiens, UniProt P41145)"
  Observed measurement: "> 30 µM"
- Compound: "CC(=O)SCC(Cc1ccccc1)C(=O)NCC(=O)OCc1ccccc1 (stereo not drawn) [RACECADOTRIL]"
  Tgt: "Kappa-type opioid receptor (Homo sapiens, UniProt P41145)"
  Observed measurement: "8.6 µM"
- Compound: "CCN(CC)CCCN(c1ccccc1)C1Cc2ccccc2C1 [APRINDINE]"
  Tgt: "Kappa-type opioid receptor (Homo sapiens, UniProt P41145)"
  Observed measurement: "0.795 µM"
- Compound: "CC(=O)N1CCN(c2ccc(OCC3COC(Cn4ccnc4)(c4ccc(Cl)cc4Cl)O3)cc2)CC1 (stereo not drawn) [KETOCONAZOLE]"
  Tgt: "Kappa-type opioid receptor (Homo sapiens, UniProt P41145)"
  Observed measurement: "> 10 µM"
- Compound: "CN(C)CCOC(=O)C(c1ccccc1)C1(O)CCCC1 (stereo not drawn) [CYCLOPENTOLATE]"
  Tgt: "Kappa-type opioid receptor (Homo sapiens, UniProt P41145)"
  Observed measurement: "> 10 µM"

###

- Tgt: Alpha-1A adrenergic receptor (Homo sapiens, UniProt P35348)
- Sequence (P35348 whole entry): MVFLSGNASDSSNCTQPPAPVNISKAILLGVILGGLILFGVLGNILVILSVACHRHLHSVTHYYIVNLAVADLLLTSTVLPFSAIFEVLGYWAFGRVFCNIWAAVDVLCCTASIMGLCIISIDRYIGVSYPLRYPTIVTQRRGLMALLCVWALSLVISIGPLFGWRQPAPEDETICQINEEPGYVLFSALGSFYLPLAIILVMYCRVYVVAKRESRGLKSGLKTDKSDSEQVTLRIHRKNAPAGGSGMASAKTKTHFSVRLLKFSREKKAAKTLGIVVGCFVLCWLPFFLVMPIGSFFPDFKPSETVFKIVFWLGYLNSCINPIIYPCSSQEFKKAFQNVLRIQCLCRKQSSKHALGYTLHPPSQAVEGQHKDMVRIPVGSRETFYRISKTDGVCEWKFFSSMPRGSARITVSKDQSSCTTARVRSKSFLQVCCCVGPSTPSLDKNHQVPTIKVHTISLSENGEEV

- Compound: "CN(C)CCC(O)(c1ccccc1)c1ccccc1Cl (stereo not given)"
  AC50: "11.8 µM"
- Compound: "Nc1ccc(S(=O)(=O)Nc2ncccn2)cc1"
  AC50: "> 10 µM"
- Compound: "CN1CCC(=C2c3ccccc3CC(=O)c3sccc32)CC1"
  AC50: "10.4 µM"
- Compound: "CC(C)(C)NCC(O)COc1cccc2c1CC(O)C(O)C2 (stereo not given)"
  AC50: "> 10 µM"
- Compound: "CC(C)CN(C[C@@H](O)[C@H](Cc1ccccc1)NC(=O)O[C@H]1CCOC1)S(=O)(=O)c1ccc(N)cc1"
  AC50: "> 10 µM"
- Compound: "Nc1nc(Cl)nc2c1ncn2[C@@H]1O[C@H](CO)[C@@H](O)[C@@H]1F"
  AC50: "29 µM"
- Compound: "Nc1nnc(-c2cccc(Cl)c2Cl)c(N)n1"
  AC50: "> 10 µM"
- Compound: "CC(C)C[C@H](NC(=O)[C@H](Cc1ccccc1)NC(=O)c1cnccn1)B(O)O"
  AC50: "> 30 µM"
- Compound: "CCN(CC)C(C)C(=O)c1ccccc1 (stereo not given)"
  AC50: "> 10 µM"
- Compound: "NCC1(CC(=O)O)CCCCC1"
  AC50: "> 10 µM"
